- method_notes: Toxicity liver stage against HepG2, at 10uM
- Type: cell-based
- Parameters: test concentration 10 uM, cell line HepG2-A16-CD81EGFP
- test_parameters: human, HepG2-A16-CD81EGFP cells; read-out: INHIBITION
measured_endpoint: cytotoxicity at 10 µM (%)
Write down the numeric answer in % and omit the unit.

Consider the compound shown here: COc1cc(N2CCC3(CCCN(C(=O)c4cccnc4)C3)C2)ncn1 (stereo unspecified) What is its recorded cytotoxicity at 10 µM? -149

Which cytotoxicity at 10 µM value is on record for O=c1cccnn1CC1CN(Cc2ccsc2)Cc2nccn2C1 (stereo unspecified) ? 1.31

Param item = Cc1ccc(OCC(=O)N2C[C@@H]3CN(C)CCO[C@@H]3C2)cc1 ; retrieve measured cytotoxicity at 10 µM. -0.204

Return reported cytotoxicity at 10 µM; argument: CCc1ccc(C(=O)N2CCCC(c3nn[nH]n3)C2)cc1 (stereo unspecified) 4.6

What does the record list as cytotoxicity at 10 µM for CC(NC(=O)NCCCN1CCCC1=O)c1ccc(Cl)s1 (stereo unspecified) ? -8.28

# input compound: O=C(c1cn(CCN2CCCCC2)nn1)N1CCSCC1 ; wanted: its cytotoxicity at 10 µM 2.34

Using the record for O=C(N1CCCC1)N1CCC2(CC1)CN(c1cccnc1)C(=O)CO2 , report its cytotoxicity at 10 µM. -99.6

I am curious: what cytotoxicity at 10 µM value has been reported for CN(C)Cc1cnc2n1CCN(C(=O)Cc1cccc(F)c1)CC2 ? -11.7

Return reported cytotoxicity at 10 µM; argument: Cc1cc(NCc2nnc3n2CCCCC3)n2nc(C)c(C)c2n1 5.66

Sample Cc1ccc(CN2CCC3(CCC(C(=O)N(C)C)O3)CC2)o1 (stereo unspecified) — what was its cytotoxicity at 10 µM? -2.63

I would be grateful if you could share the reported cytotoxicity at 10 µM for Cc1cnn(C2CCCN(C(=O)c3ccc(O)nc3)C2)c1 (stereo unspecified) . -2.78
